Tested on: DU-145 prostate
PROCEDURE TEXT: NCI-60 one-dose screen, 48 h (100 = growth as untreated, 0 = no growth, -100 = all killed)
SETTINGS: 10 µM unless noted
About 83,000 compounds went through this panel and 20% of them were active in at least one assay; those are over-represented in the sample as a whole.
OBSERVATION TYPE: growth (%)
Quick note: give the figure in %, leave out the unit.

In the examples that follow, each entry is paired with its recorded growth.
O=C(Nc1cccc2[nH]c(C(F)(F)F)nc12)c1cc(Cl)ccc1Cl	53.7
Nc1nc(N)c(-c2ccc(Cl)cc2)c(/C=C/c2ccc([N+](=O)[O-])cc2)n1	87.2
C[C@H]1[C@H]2C3=CC[C@@H]4[C@@]5(C)C/C(=C/c6ccncc6)C(=O)C(C)(C)[C@@H]5CC[C@@]4(C)[C@]3(C)CC[C@@]2(C(=O)N2CCN(C)CC2)CC[C@@H]1C	89.3

// query growth value for entry "CCNCCNc1cc(C2CCCC2)c(C#N)c2nc3ccccc3n12"
28

Find the recorded growth belonging to "C[C@@H]1CC[C@@H]2[C@@H]1[C@H](OC(=O)c1ccc3ccccc3c1)[C@]1(C3CCCCC3)C[C@@H](OC(=O)CO)[C@@]2(C)O1" and report it.
72.1

Look up growth for this molecule: "O=C1/C(=C/c2ccccc2[N+](=O)[O-])COc2ccc(O)c(O)c21"
2.13

###

Test system: SW-620 colon
PROCEDURE TEXT: NCI-60 one-dose screen, 48 h (100 = growth as untreated, 0 = no growth, -100 = all killed)
SETTINGS: 10 µM unless noted
The panel holds about 83,000 compounds, 20% with a hit somewhere; the sample as a whole holds those more often.
# if value of growth reaches 90%, tag rule met; if it stays below, tag rule not met

See these solved cases before continuing.
CCNCCNc1cc(-c2ccc(F)cc2)c(C#N)c2nc3ccccc3n12	rule not met
Nc1c(C(=O)Nc2ccccc2)sc2nc3c(cc12)CCCCCC3	rule not met
CC(=O)Nc1ccc2c(c1)Cc1c(F)cccc1-2	rule met
Cc1c2c(cn1Cc1ccccc1)CCc1cn(C)nc1-2	rule met
Cc1cnc(Nc2ccc(OCCN3CCCC3)cc2)nc1NCc1ccco1	rule not met

Can "CNC=O" be said to have growth at or above 90%?
rule met

Identify whether the reported growth of the following compound is 90% or greater: "Cl.[Pt].[c-]1ccccc1-c1ccccn1.c1ccc(P(c2ccccc2)C([PH+](c2ccccc2)c2ccccc2)[PH+](c2ccccc2)c2ccccc2)cc1"
rule not met

Is growth at least 90%? Consider "COc1ccc(/C=C(\C#N)n2nnc3ccccc32)cc1"
rule not met

Entry "CCCCCCCSc1ccc(C(=O)O)cc1" : is its growth no less than 90%?
rule met

Could you please find out whether "C=CC(=O)N[C@@H](Cc1ccc(-c2cc(Cl)cc(Cl)c2)cc1)[C@@H](O)[C@H](O)C(=O)O" has growth that meets 90% or exceeds it?
rule met

###

System: EKVX NSCLC
PROCEDURE TEXT: NCI-60 one-dose screen, 48 h
SETTINGS: 10 µM unless noted
Compounds without any hit were thinned out: in the full panel of roughly 83,000, 20% have a hit. Activity calls are given as the source filed them. The calls were made as follows: active = growth percent below 10; inactive = the rest.
Response enum: Yes = active, No = inactive

These recorded examples may help you get a feel for the data.
O=[N+]([O-])c1cccc(/C=C/c2ccccn2)c1	No
O=C(CC1Sc2ccccc2NC1=O)NNc1ccc(F)cc1 (configuration not stated)	No
CCCCCOC(=O)c1cccc(NC(=O)CN(CC)CC)c1	No
CCCc1nc2ccccn2c1Nc1ccc(C(=O)NO)cc1	No

What did the test return for OC(c1cccc(OCc2ccccc2)c1)c1nnc(-c2ccccc2)o1 (configuration not stated) ?
No

Outcome? "CS(=O)(=O)c1ccc(-c2nc3cc(Cl)ccc3n2CC(=O)NO)cc1"
No

Lab log entry: "CS(=O)(=O)c1ccc(-c2[nH]c3ccc(F)cc3c2/C=N/NC(N)=S)cc1" — outcome as called in the assay?
No

Please state the recorded outcome for this molecule: "CCc1nc2ccccc2[nH]1"
No

I'd appreciate the recorded outcome for "Cn1cc(-c2ccc3ncc(-c4ccc(CC(=O)Nc5cc(C(C)(C)C)nn5C)cc4)cc3c2)cn1" from this test.
No

What call does the record list for "O=c1[nH]c(NCc2nnnn2-c2ccc(Br)cc2)nc2sc3c(c12)CCCC3" ?
No

Which outcome was entered for the molecule O=C1Nc2ccccc2/C1=N/N=C/c1ccc(OC2OC(CO)C(O)C(O)C2O)cc1 (configuration not stated) in this test?
No

Hey, what did the test say about "COC(=O)CNC(=O)C(=O)c1c(O)c(O)c(C(C)C)c2cc(C)c(-c3c(C)cc4c(C(C)C)c(O)c(O)c(C(=O)C(=O)NCC(=O)OC)c4c3O)c(O)c12" ?
Yes

Tell me the assay call for "CCOC(=O)c1c2c(c(C)n1C)-c1nn(Cc3ccc(OC)cc3)cc1CC2" please.
No
